src = paper PMC5540273

# Test system: CAMKK2;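 note: KINOMEscan kinase panel screen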
# assay_context: concentration: 1 μM, replicates: in singlicate; n = 1
# if value of %Inh reaches 1%, tag MET; if it stays below, tag NOT MET

[
  {
    "compound": "Cl.N#CCc1ccc(Nc2nccc(Nc3ccc(Oc4ccccc4)cc3)n2)cc1 [GW639905]",
    "group_label": "NOT MET"
  },
  {
    "compound": "Cc1ccc(C)c(NC(=O)Nc2ccc(C)c(-c3ccc(C(=O)Nc4ccncc4)cc3)c2)c1 [GSK1398473]",
    "group_label": "MET"
  },
  {
    "compound": "Nc1ncc(-c2cn[nH]c2)c2scc(-c3ccc4c(c3)CCN4C(=O)Cc3ccccc3)c12 [GSK2593067]",
    "group_label": "MET"
  },
  {
    "compound": "Cc1ccc(O)cc1Nc1ccnc2cc(-c3ccc(CN4CCCCC4)o3)ccc12 [GW557777]",
    "group_label": "MET"
  },
  {
    "compound": "N#CC1(c2cccc(C(=O)Nc3cccc(Oc4ccc5nc(NC(=O)C6CC6)sc5n4)c3)c2)CC1",
    "group_label": "MET"
  }
]

**Query** Please indicate if the recorded %Inh for CN(C)CCNS(=O)(=O)c1ccc(-c2ccnc3[nH]ccc23)cc1 [GSK977620] meets or exceeds 1%.
**Result** NOT MET

**Query** Is %Inh for CC(C)c1nc(-c2ccc(F)c(NS(=O)(=O)c3c(F)cccc3F)c2)c(-c2ccnc(Nc3ccc(N4CCOCC4)nc3)n2)s1 [GSK1804250] at or above 1%?
**Result** MET

**Query** Hi team, for COc1cccc(-c2nc(-c3ccccc3)[nH]c2-c2ccncc2)c1 [SB-610250] , is the recorded %Inh at or above 1%?
**Result** NOT MET

**Query** // inclusive: %Inh at least 1%? input: CS(=O)(=O)c1cccc(CNc2nc(Nc3ccc4c(c3)CCC(=O)N4)ncc2C(F)(F)F)c1
**Result** MET

**Query** Hi, just wondering whether O=C1NC(=O)C(c2ccccc2Cl)=C1Nc1cccc(Cl)c1 [SB-342409] shows %Inh of 1% or higher.
**Result** NOT MET

**Query** Check the entry N#Cc1cnc2cc(-c3cnc(CNCCN4CCOCC4)s3)ccc2c1Nc1ccc(Oc2ccccc2)cc1 [GW664114] : does %Inh equal or exceed 1%?
**Result** MET

**Query** State whether the measured %Inh reaches 1%, counting equality as reaching it, for Cc1cc(-c2c(-c3ccc(F)cc3)ncn2CCCN2CCOCC2)nc(N)n1 [SB-222517]
**Result** NOT MET

**Query** Does the reported %Inh for COC(=O)Nc1nc2ccc(Oc3ccc(NC(=O)Nc4cc(C(F)(F)F)ccc4F)cc3)cc2[nH]1.Cl [GW654607] fall at or above the 1% mark?
**Result** MET

**Query** Determine whether this compound has %Inh no lower than 1%: CN1CCN(Cc2ccc(NC(=O)Nc3ccc(N(C)c4ccnc(Nc5ccc(CS(C)(=O)=O)cc5)n4)cc3)cc2)CC1.Cl [GW827654]
**Result** MET

**Query** Dear colleague, could you confirm whether Cn1cc(-c2cnc(N)c3c(-c4ccc5c(c4)CCN5C(=O)Cc4ccccc4)csc23)cn1 [GSK2593074] has %Inh at or above 1%?
**Result** MET

**Query** Is %Inh for Cc1ccc(NC(=O)c2cccc(N3CCCCC3)c2)cc1-c1ccc(C(=O)NCC2CC2)cc1 [GSK1917008] at or above 1%?
**Result** MET

**Query** Can Nc1ncc(-c2ccc3nccc(-c4ccncc4)c3c2)cc1S(=O)(=O)N1CCCCC1 [GSK1693850] be said to have %Inh at or above 1%?
**Result** MET

**Query** Does the reported %Inh for Cl.O=C(Nc1ccc(Oc2ccc3[nH]c(NC(=O)c4ccco4)nc3c2)cc1)Nc1cc(C(F)(F)F)ccc1F [GW683134] fall at or above the 1% mark?
**Result** NOT MET

**Query** Threshold query (%Inh >= 1%) on CCOc1nccc(-c2c(-c3ccc(F)cc3)ncn2C2CCNCC2)n1 [SB-249175]
**Result** MET

**Query** Is reported %Inh greater than or equal to 1% here: Cc1ccc(Nc2ccnc(Nc3ccc(C)c(F)c3)n2)cc1O.Cl [GW582868]
**Result** NOT MET
